Tested on: K-562 leukemia
Experiment: NCI-60 one-dose screen, 48 h
Details: 10 µM unless noted
Procedure: Cells are grown in 96 well plates and exposed to the test compound for 48 hours. Compounds are tested at a single concentration, which is 10^-5 M for most compounds. The reported endpoint is percent growth (GI% or GIPRCNT), where numbers from 0 - 100% represent growth inhibition, and numbers from -100% - 0 represent cell death. For example, a value of 40 represents 60% growth inhibition. A value of 0 means no net growth occurred over the course of the experiment. […]
Compounds without any hit were thinned out: in the full panel of roughly 83,000, 20% have a hit. Calls of active or inactive are those of the source. Rule for the calls: active = growth percent below 10; inactive = the rest.
Field 'call' accepts active, inactive

// known answers, use as guide
compound=Cc1c(C(=O)Nc2nc(-c3ccccc3)cs2)nnn1-c1ccccc1Br assigned_category=inactive
compound=O=C1c2ccccc2C(=O)c2c(Nc3ccc(CCO)cc3)ccc(O)c21 assigned_category=inactive
compound=COc1cc(Cn2cc(F)c(=O)[nH]c2=O)cc(OC)c1 assigned_category=inactive
compound=Cn1c2c(cc(S(=O)(=O)c3ccccc3)c1=O)CCc1c-2cnn1-c1ccccc1Cl assigned_category=inactive

Tell me the assay call for C[C@@H](Oc1cc(-c2cnn(C3CC4(CCCNC4)C3)c2)cnc1N)c1c(Cl)ccc(F)c1Cl (stereo not given in full) please.
active
